Give measured furin cleavage Z-score for each item. Keep answers brief.
# STUDY_SYSTEM: furin, P09958;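 also: purified furin at 1:10 enzyme:substrate in 50 mM HEPES pH 7.5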
# Sequence (P09958 whole entry): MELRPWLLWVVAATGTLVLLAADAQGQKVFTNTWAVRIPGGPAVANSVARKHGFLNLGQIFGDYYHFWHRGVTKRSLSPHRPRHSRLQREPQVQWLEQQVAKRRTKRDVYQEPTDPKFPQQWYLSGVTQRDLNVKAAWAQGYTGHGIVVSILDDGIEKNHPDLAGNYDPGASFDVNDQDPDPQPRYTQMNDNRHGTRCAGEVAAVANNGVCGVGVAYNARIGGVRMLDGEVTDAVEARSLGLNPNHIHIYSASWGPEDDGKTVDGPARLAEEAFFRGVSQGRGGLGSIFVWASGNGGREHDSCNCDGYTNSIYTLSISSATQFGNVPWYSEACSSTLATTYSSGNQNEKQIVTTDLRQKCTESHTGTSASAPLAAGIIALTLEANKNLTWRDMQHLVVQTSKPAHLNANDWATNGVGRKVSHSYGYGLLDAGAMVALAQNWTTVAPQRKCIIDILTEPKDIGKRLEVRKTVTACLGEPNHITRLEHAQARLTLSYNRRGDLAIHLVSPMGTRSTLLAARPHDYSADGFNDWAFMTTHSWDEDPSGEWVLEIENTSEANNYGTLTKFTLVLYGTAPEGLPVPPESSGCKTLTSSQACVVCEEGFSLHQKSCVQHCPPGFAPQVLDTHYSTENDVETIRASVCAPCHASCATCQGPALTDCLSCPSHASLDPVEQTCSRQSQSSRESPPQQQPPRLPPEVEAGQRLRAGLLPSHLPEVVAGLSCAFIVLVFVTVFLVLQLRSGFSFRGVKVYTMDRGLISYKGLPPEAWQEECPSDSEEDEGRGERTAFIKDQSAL
# ASSAY_METHOD_TEXT: furin cleavage Z-score vs untreated control; higher = more cleavage, active = 3.5 or more, inactive = 1 or less, 8 variable residues between constant flanks
# ASSAY_SETUP: 30 min
This is one part of the list. The true hit rate is not given.
In your answer, state the number alone without any accompanying words.

Q: Dear colleague, I am looking for the recorded furin cleavage Z-score of the following sequence: CARKPKRKRWAGNASASA [FS-1400]
Ans: 7.59

Q: Dear colleague, I am looking for the recorded furin cleavage Z-score of the following sequence: CARKPRVKRPAGNASASA [FS-1261]
Ans: 1.57

Q: Dear colleague, I am looking for the recorded furin cleavage Z-score of the following sequence: CASSRRDSSWAGNASASA [FS-3138]
Ans: -0.978

Q: Dear colleague, I am looking for the recorded furin cleavage Z-score of the following sequence: CAMKNRFLRSAGNASASA [FS-1645]
Ans: 7.79

Q: Dear colleague, I am looking for the recorded furin cleavage Z-score of the following sequence: CAQRRRQLRSAGNASASA [FS-1254]
Ans: 7.49

Q: Dear colleague, I am looking for the recorded furin cleavage Z-score of the following sequence: CAHKHRSNRQAGNASASA [FS-1337]
Ans: 1.67

Q: Dear colleague, I am looking for the recorded furin cleavage Z-score of the following sequence: CALRMFERRSAGNASASA [FS-1367]
Ans: 0.543
